Organism: Homo sapiens
Assay: Activation of human plasma alternative complement system assessed as hemolysis of non-sensitized rabbit erythrocytes at 1000 uM
Type: cell-free
Property: Activity (%)
Field format: number, assumed %, no unit text.

Value of measured Activity for the entry O=c1cc(-c2ccc(O)cc2)oc2cc(O[C@@H]3O[C@H](CO)[C@@H](O)[C@H](O)[C@H]3O)cc(O)c12 : 2.4

response.value for COc1cc(-c2cc(=O)c3c(O)cc(O[C@@H]4O[C@H](CO)[C@@H](O)[C@H](O)[C@H]4O[C@@H]4O[C@@H](C)[C@H](O)[C@@H](O)[C@H]4O)cc3o2)ccc1O (field: Activity) = 11.2

Activity measured on COc1cc(-c2cc(=O)c3c(O)cc(O)cc3o2)ccc1O = 59

get_value(item= C[C@@H]1O[C@@H](OC[C@H]2O[C@@H](Oc3c(-c4ccc(O)cc4)oc4cc(O)cc(O)c4c3=O)[C@H](O)[C@@H](O)[C@@H]2O)[C@H](O)[C@H](O)[C@H]1O , readout=Activity) returns 18.4

***
For record COc1cc(O)c2c(=O)c(O)c(-c3ccc(OC)c(O)c3)oc2c1 the listed Activity is 13.7

---

Known inhibition of a selection of compounds
Species: Cavia porcellus
Assay: Inhibition of guinea pig classical complement system assessed as hemolysis of sensitized sheep erythrocytes at 1000 uM
A number alone suffices; assume %.

Sample records with inhibition:
Record C[C@@H]1O[C@@H](OC[C@H]2O[C@@H](Oc3c(-c4ccc(O)cc4)oc4cc(O)cc(O)c4c3=O)[C@H](O)[C@@H](O)[C@@H]2O)[C@H](O)[C@H](O)[C@H]1O . Reported inhibition: 19.2

So for O=C(/C=C/c1ccc(O)c(O)c1)O[C@H](Cc1ccc(O)c(O)c1)C(=O)O , the logged inhibition turned out to be 93.3

Briefly, inhibition measured for C[C@@H]1O[C@@H](Oc2c(-c3ccc(O)c(O)c3)oc3cc(O)cc(O)c3c2=O)[C@H](O)[C@H](O)[C@H]1O : 56.2

Others:
inhibition for C[C@@H]1O[C@@H](Oc2c(-c3ccc(O)cc3)oc3cc(O)cc(O)c3c2=O)[C@H](O)[C@H](O)[C@H]1O is 5.6

---

Organism: Homo sapiens
Experiment: Inhibition of human plasma alternative complement system assessed as hemolysis of non-sensitized rabbit erythrocytes at 1000 uM
Assay type: cell-free
Rule: true for inhibition not less than 10%, false for anything less.

Some solved entries appear below for comparison.
Exercise: Dear colleague, could you confirm whether O=C(/C=C/c1ccc(O)c(O)c1)O[C@H](Cc1ccc(O)c(O)c1)C(=O)O has inhibition at or above 10%?
Solution: true

Exercise: Determine whether this compound has inhibition no lower than 10%: C[C@@H]1O[C@@H](Oc2c(-c3ccc(O)c(O)c3)oc3cc(O)cc(O)c3c2=O)[C@H](O)[C@H](O)[C@H]1O
Solution: true

Exercise: Form field: inhibition at least 10%? Entry: O=c1cc(-c2ccc(O)c(O)c2)oc2cc(O[C@@H]3O[C@H](CO)[C@@H](O)[C@H](O)[C@H]3O)cc(O)c12
Solution: false

Exercise: Test whether the compound O=c1c(O)c(-c2ccc(O)c(O)c2)oc2cc(O)cc(O)c12 records inhibition of 10% or higher.
Solution: true

Exercise: Check if inhibition >= 10% (inclusive). Item: C[C@@H]1O[C@@H](Oc2c(-c3ccc(O)cc3)oc3cc(O)cc(O)c3c2=O)[C@H](O)[C@H](O)[C@H]1O
Solution: false

We now examine a further compound.
Exercise: Given the entry C[C@@H]1O[C@@H](OC[C@H]2O[C@@H](Oc3c(-c4ccc(O)c(O)c4)oc4cc(O)cc(O)c4c3=O)[C@H](O)[C@@H](O)[C@@H]2O)[C@H](O)[C@H](O)[C@H]1O , answer whether its inhibition meets or surpasses 10%.
Solution: true
